B1: glmS ribozyme (parent)
chain: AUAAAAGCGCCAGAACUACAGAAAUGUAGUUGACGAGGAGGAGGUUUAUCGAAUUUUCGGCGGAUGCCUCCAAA

# Variants of: B1
# experimental.protocol: self-cleavage kobs at 2500 uM GlcN6P; higher = faster cleavage; RNA array
# assay.conditions: with glucosamine-6-phosphate
Fewer inactive variants are shown than the library holds.
observable: self-cleavage kobs at 2500 uM GlcN6P (s⁻¹)
The reply should be a number in s⁻¹, with the unit left off.

alteration	self-cleavage kobs at 2500 uM GlcN6P / s⁻¹
G40A G41A C71A	9.76e-05
U54G G66U	0.000956
A14G G59A	0.000183
A39U C68G	0.000126
U45A U46C	0.0334

input: # input variant: C11A A12G U65A C67G ; wanted: its self-cleavage kobs at 2500 uM GlcN6P
output: 0.000105

input: # input variant: A14C U30G A52G ; wanted: its self-cleavage kobs at 2500 uM GlcN6P
output: 4.27e-05

input: # input variant: A15G G29U A39G C67U ; wanted: its self-cleavage kobs at 2500 uM GlcN6P
output: 0.000169

input: # input variant: C11U C67G ; wanted: its self-cleavage kobs at 2500 uM GlcN6P
output: 0.000218

input: # input variant: U31C U47A ; wanted: its self-cleavage kobs at 2500 uM GlcN6P
output: 0.00178

input: # input variant: G32U A64G ; wanted: its self-cleavage kobs at 2500 uM GlcN6P
output: 0.00034
